biological target: EGFR NPH (Homo sapiens, UniProt P00533, DUP771-773); construct: expressed in transfected cells; host or cells: BaF3 (murine pro-B), retroviral pMXs-IRES-Blasticidin; test: Activity for inhibiting EGFR (Table A), EGFR NPH; format: cell-based; conditions: read-out: EGFR NPH, potency code (IC50)
Sequence (P00533 with tags, fused parts or gaps DUP771-773): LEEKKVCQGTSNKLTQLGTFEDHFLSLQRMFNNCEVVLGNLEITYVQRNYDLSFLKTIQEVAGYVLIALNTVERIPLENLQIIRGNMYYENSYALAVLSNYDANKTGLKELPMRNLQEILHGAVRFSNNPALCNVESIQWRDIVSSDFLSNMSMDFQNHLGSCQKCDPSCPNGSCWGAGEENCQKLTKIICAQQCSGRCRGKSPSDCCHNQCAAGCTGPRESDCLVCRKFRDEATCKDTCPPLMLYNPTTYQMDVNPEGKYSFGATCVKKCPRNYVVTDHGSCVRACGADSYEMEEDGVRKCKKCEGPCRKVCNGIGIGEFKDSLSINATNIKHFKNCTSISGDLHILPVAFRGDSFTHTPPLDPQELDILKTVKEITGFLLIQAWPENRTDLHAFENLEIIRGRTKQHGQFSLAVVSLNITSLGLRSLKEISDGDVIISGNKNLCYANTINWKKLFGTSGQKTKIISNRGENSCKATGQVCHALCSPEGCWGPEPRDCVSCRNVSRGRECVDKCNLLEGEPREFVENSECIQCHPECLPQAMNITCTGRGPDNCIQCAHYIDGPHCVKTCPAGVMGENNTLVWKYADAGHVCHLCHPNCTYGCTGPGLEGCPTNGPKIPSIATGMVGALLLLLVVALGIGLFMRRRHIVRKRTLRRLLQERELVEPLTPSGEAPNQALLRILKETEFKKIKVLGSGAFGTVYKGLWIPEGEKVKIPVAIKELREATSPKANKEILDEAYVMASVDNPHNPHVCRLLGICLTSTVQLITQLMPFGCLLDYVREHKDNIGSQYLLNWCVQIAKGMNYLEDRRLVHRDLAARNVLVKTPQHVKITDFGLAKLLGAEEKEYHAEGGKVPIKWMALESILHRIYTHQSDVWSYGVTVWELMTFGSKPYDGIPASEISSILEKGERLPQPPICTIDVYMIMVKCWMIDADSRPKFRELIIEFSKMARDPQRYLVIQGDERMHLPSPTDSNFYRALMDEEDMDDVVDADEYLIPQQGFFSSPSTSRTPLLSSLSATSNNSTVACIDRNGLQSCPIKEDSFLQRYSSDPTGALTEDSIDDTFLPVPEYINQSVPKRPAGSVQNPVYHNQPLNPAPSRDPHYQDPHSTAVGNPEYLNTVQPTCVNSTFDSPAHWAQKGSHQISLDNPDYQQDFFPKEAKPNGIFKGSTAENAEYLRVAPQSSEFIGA

compound	experimental_system	IC50
C=CC(=O)Nc1cc2c(Nc3ccc(OCc4ccccn4)c(Cl)c3)c(C#N)cnc2cc1OCCN1CCOCC1 [compound 11]	EGFR NPH (Homo sapiens, UniProt P00533, DUP771-773)	0.3 to 0.5 µM
C=CC(=O)Nc1cc2c(Nc3ccc(Oc4ccccc4)cc3)ncnc2cc1OCCN1CCOCC1 [compound 63]	EGFR NPH (Homo sapiens, UniProt P00533, DUP771-773)	0.3 to 0.5 µM
C=CC(=O)Nc1cc2c(Nc3ccc(OCc4ccccn4)c(Cl)c3)ncnc2cc1N1CCN(C)CC1 [compound 42]	EGFR NPH (Homo sapiens, UniProt P00533, DUP771-773)	> 1 µM
C=CC(=O)Nc1cc2c(Nc3ccc(OCc4ccccn4)c(Cl)c3)ncnc2cc1OCCN1CC(OC)C1 [compound 35]	EGFR NPH (Homo sapiens, UniProt P00533, DUP771-773)	0.05 to 0.1 µM
C=CC(=O)Nc1cc2c(Nc3ccc(OCc4ccccn4)c(Cl)c3)ncnc2cc1OCCN(C)C1CCOC1 (stereo not drawn) [compound 41]	EGFR NPH (Homo sapiens, UniProt P00533, DUP771-773)	0.05 to 0.1 µM
C=CC(=O)Nc1cc2c(Nc3ccc(Oc4ccc(C)nc4)c(C)c3)ncnc2cc1OC1CCN(C)C1 (stereo not drawn) [compound 68]	EGFR NPH (Homo sapiens, UniProt P00533, DUP771-773)	0.5 to 1 µM
C=CC(=O)Nc1cc2c(Nc3ccc(OCc4ccccn4)c(Cl)c3)ncnc2cc1C#CC(C)(C)N1CCCC1 [compound 84]	EGFR NPH (Homo sapiens, UniProt P00533, DUP771-773)	0.05 to 0.1 µM
C=CC(=O)Nc1cc2c(Nc3ccc(OCc4ccccn4)c(Cl)c3)ncnc2cc1N1CC2CN(C)CC2C1 (stereo not drawn) [compound 47]	EGFR NPH (Homo sapiens, UniProt P00533, DUP771-773)	0.5 to 1 µM
C=CC(=O)Nc1cc2c(Nc3cc(Cl)c(OCc4ccccn4)cc3F)ncnc2cc1OCCN1CCOCC1 [compound 57]	EGFR NPH (Homo sapiens, UniProt P00533, DUP771-773)	0.05 to 0.1 µM
C=CC(=O)Nc1cc2c(Nc3ccc(OCc4ccccn4)c(Cl)c3)ncnc2cc1OCC1CCCN1 (stereo not drawn) [compound 13]	EGFR NPH (Homo sapiens, UniProt P00533, DUP771-773)	0.3 to 0.5 µM
C=CC(=O)Nc1cc2c(Nc3ccc(OCc4ccccn4)c(Cl)c3)ncnc2cc1C#C[C@H]1CCN(C)C1 [compound 85]	EGFR NPH (Homo sapiens, UniProt P00533, DUP771-773)	0.02 to 0.03 µM
C=CC(=O)Nc1cc2c(Nc3ccc(OCc4ccccn4)c(Cl)c3)ncnc2cc1OCCCN1CC2CC1CO2 (stereo not drawn) [compound 20]	EGFR NPH (Homo sapiens, UniProt P00533, DUP771-773)	0.01 to 0.02 µM
C=CC(=O)Nc1cc2c(Nc3ccc(OCc4ccccn4)c(Cl)c3)ncnc2cc1OCC1(N(C)C)CC1 [compound 54]	EGFR NPH (Homo sapiens, UniProt P00533, DUP771-773)	0.1 to 0.2 µM
C=CC(=O)Nc1cc2c(Nc3ccc(OCc4ccccn4)c(Cl)c3)ncnc2cc1OCCN1CC2(CCO2)C1 [compound 52]	EGFR NPH (Homo sapiens, UniProt P00533, DUP771-773)	0.05 to 0.1 µM
CC#CC(=O)Nc1cc2c(Nc3ccc(OCc4ccccn4)c(Cl)c3)ncnc2cc1OCCN1CCOCC1 [compound 5]	EGFR NPH (Homo sapiens, UniProt P00533, DUP771-773)	0.03 to 0.05 µM
C=CC(=O)Nc1cc2c(Nc3ccc(OCc4ccccn4)c(Cl)c3)ncnc2cc1OCCN1CCOCC1 [compound 8]	EGFR NPH (Homo sapiens, UniProt P00533, DUP771-773)	0.03 to 0.05 µM
C=CC(=O)Nc1cc2c(Nc3ccc(OCc4ccccn4)c(Cl)c3)ncnc2cc1OCCN1CC2COCC2C1 (stereo not drawn) [compound 51]	EGFR NPH (Homo sapiens, UniProt P00533, DUP771-773)	0.05 to 0.1 µM
C=CC(=O)Nc1cc2c(Nc3ccc(OCc4ccccn4)c(Cl)c3)ncnc2cc1OCCCN1CCN(C)CC1 [compound 69]	EGFR NPH (Homo sapiens, UniProt P00533, DUP771-773)	0.02 to 0.03 µM
C=CC(=O)Nc1cc2c(Nc3ccc(OCc4ccccn4)cc3F)ncnc2cc1OCCN1CCOCC1 [compound 56]	EGFR NPH (Homo sapiens, UniProt P00533, DUP771-773)	0.3 to 0.5 µM
C=CC(=O)Nc1cc2c(Nc3ccc(OCc4ccccn4)c(Cl)c3)ncnc2cc1OC1CN(C)C1 [compound 25]	EGFR NPH (Homo sapiens, UniProt P00533, DUP771-773)	0.02 to 0.03 µM
C=CC(=O)Nc1cc2c(Nc3ccc(OCc4ccccn4)c(Cl)c3)ncnc2cc1OCCCN1CCCC1 [compound 22]	EGFR NPH (Homo sapiens, UniProt P00533, DUP771-773)	0.02 to 0.03 µM
C=CC(=O)Nc1cc2c(Nc3ccc(OCc4ccccn4)c(Cl)c3)ncnc2cc1OCCN1CCCC1 [compound 28]	EGFR NPH (Homo sapiens, UniProt P00533, DUP771-773)	0.05 to 0.1 µM
C=CC(=O)Nc1cc2c(Nc3cc(Cl)c(OCc4ccccn4)cc3F)ncnc2cc1OC1CCN(C)C1 (stereo not drawn) [compound 60]	EGFR NPH (Homo sapiens, UniProt P00533, DUP771-773)	0.2 to 0.3 µM
C=CC(=O)Nc1cc2c(Nc3ccc(OCc4ccccn4)c(Cl)c3)ncnc2cc1OCCN1CCC1 [compound 33]	EGFR NPH (Homo sapiens, UniProt P00533, DUP771-773)	0.05 to 0.1 µM
C=CC(=O)Nc1cc2c(Nc3ccc(OCc4ccccn4)c(Cl)c3)ncnc2cc1OCCN1CC2CC1CO2 (stereo not drawn) [compound 39]	EGFR NPH (Homo sapiens, UniProt P00533, DUP771-773)	0.05 to 0.1 µM
C=CC(=O)Nc1cc2c(Nc3ccc(OCc4ccccn4)c(Cl)c3)ncnc2cc1OCCN1C2CCC1COC2 [compound 31]	EGFR NPH (Homo sapiens, UniProt P00533, DUP771-773)	0.05 to 0.1 µM
C=CC(=O)Nc1cc2c(Nc3ccc(OCc4ccccn4)c(Cl)c3)ncnc2cc1N1CCC(N(C)C)CC1 [compound 78]	EGFR NPH (Homo sapiens, UniProt P00533, DUP771-773)	0.3 to 0.5 µM
C=CC(=O)Nc1cc2c(Nc3ccc(OCc4ccccn4)c(Cl)c3)ncnc2cc1C#C[C@@H]1[C@H]2CN(C)C[C@@H]12 [compound 26]	EGFR NPH (Homo sapiens, UniProt P00533, DUP771-773)	0.03 to 0.05 µM
C=CC(=O)Nc1cc2c(Nc3ccc(OCc4ccccn4)c(Cl)c3)ncnc2cc1OC1CC(N(C)C)C1 (stereo not drawn) [compound 62]	EGFR NPH (Homo sapiens, UniProt P00533, DUP771-773)	0.03 to 0.05 µM
C=CC(=O)Nc1cc2c(Nc3ccc(OCc4ccccn4)c(Cl)c3)ncnc2cc1O[C@@H]1CCN(C)C1 [compound 17]	EGFR NPH (Homo sapiens, UniProt P00533, DUP771-773)	0.02 to 0.03 µM

---

molecular target: HER2 YVMA (Homo sapiens, UniProt P04626, INS775YVMA); construct: expressed in transfected cells; host or cells: BaF3 (murine pro-B); test: Activity for inhibiting HER2 (Table B), HER2 YVMA; format: cell-based; details: read-out: HER2 YVMA, potency code (IC50)
Sequence (P04626 with tags, fused parts or gaps INS775YVMA): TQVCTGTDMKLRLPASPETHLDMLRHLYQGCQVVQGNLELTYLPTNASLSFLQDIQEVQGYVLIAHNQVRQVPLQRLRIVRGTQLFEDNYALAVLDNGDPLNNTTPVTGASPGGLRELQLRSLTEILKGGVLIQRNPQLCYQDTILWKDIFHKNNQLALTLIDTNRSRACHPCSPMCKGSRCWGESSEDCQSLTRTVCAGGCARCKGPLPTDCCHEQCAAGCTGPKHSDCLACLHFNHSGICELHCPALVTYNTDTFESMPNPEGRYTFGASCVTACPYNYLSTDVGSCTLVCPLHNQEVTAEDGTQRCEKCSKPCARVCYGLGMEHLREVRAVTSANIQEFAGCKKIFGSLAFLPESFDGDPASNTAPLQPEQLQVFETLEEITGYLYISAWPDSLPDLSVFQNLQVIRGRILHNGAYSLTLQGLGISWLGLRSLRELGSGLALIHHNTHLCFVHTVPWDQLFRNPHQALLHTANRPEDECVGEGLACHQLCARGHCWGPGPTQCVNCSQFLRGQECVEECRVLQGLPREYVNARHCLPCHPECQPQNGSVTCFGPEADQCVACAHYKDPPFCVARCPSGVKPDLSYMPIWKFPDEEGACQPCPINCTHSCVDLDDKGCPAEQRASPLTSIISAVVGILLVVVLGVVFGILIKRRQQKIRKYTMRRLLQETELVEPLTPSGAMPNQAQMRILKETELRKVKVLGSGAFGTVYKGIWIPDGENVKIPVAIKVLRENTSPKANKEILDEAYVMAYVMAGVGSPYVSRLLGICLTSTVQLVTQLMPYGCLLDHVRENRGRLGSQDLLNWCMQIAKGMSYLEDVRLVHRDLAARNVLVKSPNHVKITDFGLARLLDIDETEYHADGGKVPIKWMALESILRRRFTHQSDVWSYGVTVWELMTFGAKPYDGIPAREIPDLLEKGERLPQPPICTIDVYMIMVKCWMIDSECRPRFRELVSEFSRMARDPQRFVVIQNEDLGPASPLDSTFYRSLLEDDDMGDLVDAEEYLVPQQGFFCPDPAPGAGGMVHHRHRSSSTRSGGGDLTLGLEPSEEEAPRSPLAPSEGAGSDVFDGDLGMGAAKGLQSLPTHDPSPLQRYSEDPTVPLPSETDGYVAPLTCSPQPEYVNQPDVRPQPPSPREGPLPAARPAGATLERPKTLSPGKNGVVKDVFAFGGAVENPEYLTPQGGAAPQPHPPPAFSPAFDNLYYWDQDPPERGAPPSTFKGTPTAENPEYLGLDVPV

compound	IC50
C=CC(=O)Nc1cc2c(Nc3ccc(OCc4ccccn4)c(Cl)c3)ncnc2cc1OCCn1ccnc1	200 to 300 nM
C=CC(=O)Nc1cc2c(Nc3ccc(OCc4cnccn4)c(Cl)c3)ncnc2cc1OCCN1CC(OC)C1	100 to 200 nM
C=CC(=O)Nc1cc2c(Nc3ccc(OCc4cccc(F)c4)c(Cl)c3)ncnc2cc1O[C@@H]1CCN(C)C1	300 to 500 nM
C=CC(=O)Nc1cc2c(Nc3cc(Cl)c(OCc4ccccn4)cc3F)ncnc2cc1OC1CCN(C)C1 (centres unmarked)	300 to 500 nM
C=CC(=O)Nc1cc2c(Nc3cc(Cl)c(OCc4cccc(F)c4)cc3F)ncnc2cc1OCCN1CC2CCC(C1)O2	200 to 300 nM
C=CC(=O)Nc1cc2c(Nc3ccc(OCc4cccc(F)n4)c(Cl)c3)ncnc2cc1OCCCN1CCOCC1	50 to 100 nM
C=CC(=O)Nc1cc2c(Nc3ccc(OCc4ccccn4)c(Cl)c3)ncnc2cc1OCCN1CCC(O)CC1	100 to 200 nM
C=CC(=O)Nc1cc2c(Nc3ccc(OCc4ccccn4)cc3)ncnc2cc1OCCN1CC2CN(C)CC2C1 (centres unmarked)	> 1000 nM
C=CC(=O)Nc1cc2c(Nc3ccc(OCc4ccccn4)c(Cl)c3)ncnc2cc1OC1CCN(C)CC1	200 to 300 nM
C=CC(=O)Nc1cc2c(Nc3ccc(OCc4cccc(F)n4)c(Cl)c3)ncnc2cc1OCCN1CC(OC)C1	300 to 500 nM
C=CC(=O)Nc1cc2c(Nc3ccc(OCc4ccccn4)c(Cl)c3)ncnc2cc1OCCN1CCC(OC)CC1	100 to 200 nM
C=CC(=O)Nc1cc2c(Nc3ccc(Oc4ccccc4)c(Cl)c3)ncnc2cc1O[C@@H]1CCN(C)C1	200 to 300 nM
C=CC(=O)Nc1cc2c(Nc3cc(Cl)c(OCc4cccc(F)c4)cc3F)ncnc2cc1OCCN1CCOCC1	50 to 100 nM
C=CC(=O)Nc1cc2c(Nc3ccc(OCc4cccc(F)n4)c(Cl)c3)ncnc2cc1OCCN1CCOCC1	100 to 200 nM
C=CC(=O)Nc1cc2c(Nc3ccc(OCc4ccccn4)c(Cl)c3)ncnc2cc1N1CC2(CN(C)C2)C1	> 1000 nM
COC/C=C/C(=O)Nc1cc2c(Nc3ccc(OCc4ccccn4)c(Cl)c3)ncnc2cc1OCCN1CCOCC1	> 1000 nM
C=CC(=O)Nc1cc2c(Nc3ccc(OCc4cccc(F)c4)c(Cl)c3)ncnc2cc1OCCN1CCN(C)CC1	300 to 500 nM
CC#CC(=O)Nc1cc2c(Nc3cc(Cl)c(OCc4cccc(F)c4)cc3F)ncnc2cc1OCCN1CC2CCC(C1)O2	50 to 100 nM
C=CC(=O)Nc1cc2c(Nc3ccc(OCc4ccccn4)c(Cl)c3)ncnc2cc1OCC(C)(C)N(C)C	300 to 500 nM
C=CC(=O)Nc1cc2c(Nc3ccc(OCc4ccccn4)c(Cl)c3)ncnc2cc1OCCN1CCOCC1	50 to 100 nM
C=CC(=O)Nc1cc2c(Nc3ccc(OCc4cnccn4)c(Cl)c3)ncnc2cc1OCCN1CCOCC1	100 to 200 nM
CC#CC(=O)Nc1cc2c(Nc3ccc(OCc4ccccn4)c(Cl)c3)ncnc2cc1OC1CCN(C)C1 (centres unmarked)	50 to 100 nM
C=CC(=O)Nc1cc2c(Nc3ccc(OCc4cnccn4)c(Cl)c3)ncnc2cc1OCCCN1CCOCC1	30 to 50 nM
C=CC(=O)Nc1cc2c(Nc3ccc(OCc4cnccn4)c(Cl)c3)ncnc2cc1OCCN1CC2CCC(C1)O2	100 to 200 nM
C=CC(=O)Nc1cc2c(Nc3ccc(Oc4ccccc4)c(C)c3)ncnc2cc1C#C[C@@H]1[C@H]2CN(C)C[C@@H]12	100 to 200 nM
C=CC(=O)Nc1cc2c(Nc3ccc(OCc4ccccn4)cc3)ncnc2cc1OCC1COCCN1 (centres unmarked)	> 1000 nM
C=CC(=O)Nc1cc2c(Nc3ccc(Oc4ccc(C)nc4)c(C)c3)ncnc2cc1C#C[C@@H]1[C@H]2CN(C)C[C@@H]12	30 to 50 nM
C=CC(=O)Nc1cc2c(Nc3ccc(OCc4ccccn4)c(Cl)c3)ncnc2cc1O[C@@H]1CCN(C)C1	30 to 50 nM
CC#CC(=O)Nc1cc2c(Nc3ccc(Oc4ccccc4)cc3)ncnc2cc1C#C[C@@H]1[C@H]2CN(C)C[C@@H]12	500 to 1000 nM
